System: HeLa Kyoto
procedure-details: solubility change mitosis vs G1/S (difference of NP-40 vs SDS log2 ratios) (log2 ratio difference); higher = more soluble in mitosis
recorded-endpoint: solubility change mitosis (log2)
Answer field: number only, no words.

Which solubility change mitosis (log2) is listed for MSRYGRYGGETKVYVGNLGTGAGKGELERAFSYYGPLRTVWIARNPPGFAFVEFEDPRDAEDAVRGLDGKVICGSRVRVELSTGMPRRSRFDRPPARRPFDPNDRCYECGEKGHYAYDCHRYSRRRRSRSRSRSHSRSRGRRYSRSRSRSRGRRSRSASPRRSRSISLRRSRSASLRRSRSGSIKGSRYFQSPSRSRSRSRSISRPRSSRSKSRSPSPKRSRSPSGSPRRSASPERMD [SRSF7] ? 0.665

Which solubility change mitosis (log2) is listed for MATRSPGVVISDDEPGYDLDLFCIPNHYAEDLERVFIPHGLIMDRTERLARDVMKEMGGHHIVALCVLKGGYKFFADLLDYIKALNRNSDRSIPMTVDFIRLKSYCNDQSTGDIKVIGGDDLSTLTGKNVLIVEDIIDTGKTMQTLLSLVRQYNPKMVKVASLLVKRTPRSVGYKPDFVGFEIPDKFVVGYALDYNEYFRDLNHVCVISETGKAKYKA [HPRT1] ? -0.113

Which solubility change mitosis (log2) is listed for MGIQTSPVLLASLGVGLVTLLGLAVGSYLVRRSRRPQVTLLDPNEKYLLRLLDKTTVSHNTKRFRFALPTAHHTLGLPVGKHIYLSTRIDGSLVIRPYTPVTSDEDQGYVDLVIKVYLKGVHPKFPEGGKMSQYLDSLKVGDVVEFRGPSGLLTYTGKGHFNIQPNKKSPPEPRVAKKLGMIAGGTGITPMLQLIRAILKVPEDPTQCFLLFANQTEKDIILREDLEELQARYPNRFKLWFTLDHPPKDWAYSKGFVTADMIREHLPAPGDDVLVLLCGPPPMVQLACHPNLDKLGYSQKMRFTY [CYB5R1] ? -0.041

Which solubility change mitosis (log2) is listed for MNSVGEACTDMKREYDQCFNRWFAEKFLKGDSSGDPCTDLFKRYQQCVQKAIKEKEIPIEGLEFMGHGKEKPENSS [TRIAP1] ? 0.6

Which solubility change mitosis (log2) is listed for MAAYKLVLIRHGESAWNLENRFSGWYDADLSPAGHEEAKRGGQALRDAGYEFDICFTSVQKRAIRTLWTVLDAIDQMWLPVVRTWRLNERHYGGLTGLNKAETAAKHGEAQVKIWRRSYDVPPPPMEPDHPFYSNISKDRRYADLTEDQLPSCESLKDTIARALPFWNEEIVPQIKEGKRVLIAAHGNSLRGIVKHLEGLSEEAIMELNLPTGIPIVYELDKNLKPIKPMQFLGDEETVRKAMEAVAAQGKAKK [PGAM1] ? -0.15

Which solubility change mitosis (log2) is listed for MAAAEEGCSVGAEADRELEELLESALDDFDKAKPSPAPPSTTTAPDASGPQKRSPGDTAKDALFASQEKFFQELFDSELASQATAEFEKAMKELAEEEPHLVEQFQKLSEAAGRVGSDMTSQQEFTSCLKETLSGLAKNATDLQNSSMSEEELTKAMEGLGMDEGDGEGNILPIMQSIMQNLLSKDVLYPSLKEITEKYPEWLQSHRESLPPEQFEKYQEQHSVMCKICEQFEAETPTDSETTQKARFEMVLDLMQQLQDLGHPPKELAGEMPPGLNFDLDALNLSGPPGASGEQCLIM [PEX19] ? 0.402

###

Answer each item with its documented melting temperature.
Tested on: HeLa Kyoto
procedure-details: melting temperature (median over replicates), in situ; higher = more thermally stable
measurement-context: cell cycle stage: G1/S

Which melting temperature is listed for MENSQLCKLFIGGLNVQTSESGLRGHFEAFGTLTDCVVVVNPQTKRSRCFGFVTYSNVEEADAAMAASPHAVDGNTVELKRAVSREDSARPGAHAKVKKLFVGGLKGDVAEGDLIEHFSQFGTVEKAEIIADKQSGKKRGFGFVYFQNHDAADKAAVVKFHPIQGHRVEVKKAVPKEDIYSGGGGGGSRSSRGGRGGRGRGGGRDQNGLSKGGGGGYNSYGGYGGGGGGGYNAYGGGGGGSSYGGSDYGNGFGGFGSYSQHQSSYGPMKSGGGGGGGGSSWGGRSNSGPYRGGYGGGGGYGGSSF [HNRNPA0] ? 45.2 °C

Which melting temperature is listed for MGILEKISEIEKEIARTQKNKATEYHLGLLKAKLAKYRAQLLEPSKSASSKGEGFDVMKSGDARVALIGFPSVGKSTFLSLMTSTASEAASYEFTTLTCIPGVIEYKGANIQLLDLPGIIEGAAQGKGRGRQVIAVARTADVIIMMLDATKGEVQRSLLEKELESVGIRLNKHKPNIYFKPKKGGGISFNSTVTLTQCSEKLVQLILHEYKIFNAEVLFREDCSPDEFIDVIVGNRVYMPCLYVYNKIDQISMEEVDRLARKPNSVVISCGMKLNLDYLLEMLWEYLALTCIYTKKRGQRPDFTDAIILRKGASVEHVCHRIHRSLASQFKYALVWGTSTKYSPQRVGLTHTMEHEDVIQIVKK [DRG2] ? 51.9 °C

Which melting temperature is listed for MAAPQDVHVRICNQEIVKFDLEVKALIQDIRDCSGPLSALTELNTKVKEKFQQLRHRIQDLEQLAKEQDKESEKQLLLQEVENHKKQMLSNQASWRKANLTCKIAIDNLEKAELLQGGDLLRQRKTTKESLAQTSSTITESLMGISRMMAQQVQQSEEAMQSLVTSSRTILDANEEFKSMSGTIQLGRKLITKYNRRELTDKLLIFLALALFLATVLYIVKKRLFPFL [BNIP1] ? 52.3 °C

Which melting temperature is listed for MASEELQKDLEEVKVLLEKATRKRVRDALTAEKSKIETEIKNKMQQKSQKKAELLDNEKPAAVVAPITTGYTVKISNYGWDQSDKFVKIYITLTGVHQVPTENVQVHFTERSFDLLVKNLNGKSYSMIVNNLLKPISVEGSSKKVKTDTVLILCRKKVENTRWDYLTQVEKECKEKEKPSYDTETDPSEGLMNVLKKIYEDGDDDMKRTINKAWVESREKQAKGDTEF [CACYBP] ? 52.2 °C

Which melting temperature is listed for MPGRAPLRTVPGALGAWLLGGLWAWTLCGLCSLGAVGAPRPCQAPQQWEGRQVMYQQSSGRNSRALLSYDGLNQRVRVLDERKALIPCKRLFEYILLYKDGVMFQIDQATKQCSKMTLTQPWDPLDIPQNSTFEDQYSIGGPQEQITVQEWSDRKSARSYETWIGIYTVKDCYPVQETFTINYSVILSTRFFDIQLGIKDPSVFTPPSTCQMAQLEKMSEDCSW [EPDR1] ? 56.1 °C

###

Tested on: HeLa Kyoto
procedure-details: solubility in G1/S (NP-40 vs SDS abundance) (log2 ratio); higher = more soluble
measurement-context: cell cycle stage: G1/S
Category | rule: reported solubility in G1/S (log2) within range, see 0 (below -0.06), 1 (-0.06 to below 0.1), 2 (0.1 or more)

Which category fits this record: MGRLDGKVIILTAAAQGIGQAAALAFAREGAKVIATDINESKLQELEKYPGIQTRVLDVTKKKQIDQFANEVERLDVLFNVAGFVHHGTVLDCEEKDWDFSMNLNVRSMYLMIKAFLPKMLAQKSGNIINMSSVASSVKGVVNRCVYSTTKAAVIGLTKSVAADFIQQGIRCNCVCPGTVDTPSLQERIQARGNPEEARNDFLKRQKTGRFATAEEIAMLCVYLASDESAYVTGNPVIIDGGWSL [BDH2] 1

Which category fits this record: MVDHLANTEINSQRIAAVESCFGASGQPLALPGRVLLGEGVLTKECRKKAKPRIFFLFNDILVYGSIVLNKRKYRSQHIIPLEEVTLELLPETLQAKNRWMIKTAKKSFVVSAASATERQEWISHIEECVRRQLRATGRPPSTEHAAPWIPDKATDICMRCTQTRFSALTRRHHCRKCGFVVCAECSRQRFLLPRLSPKPVRVCSLCYRELAAQQRQEEAEEQGAGSPGQPAHLARPICGASSGDDDDSDEDKEGSRDGDWPSSVEFYASGVAWSAFHS [PLEKHF1] 1

Which category fits this record: MKKEHVLHCQFSAWYPFFRGVTIKSVILPLPQNVKDYLLDDGTLVVSGRDDPPTHSQPDSDDEAEEIQWSDDENTATLTAPEFPEFATKVQEAINSLGGSVFPKLNWSAPRDAYWIAMNSSLKCKTLSDIFLLFKSSDFITRDFTQPFIHCTDDSPDPCIEYELVLRKWCELIPGAEFRCFVKENKLIGISQRDYTQYYDHISKQKEEIRRCIQDFFKKHIQYKFLDEDFVFDIYRDSRGKVWLIDFNPFGEVTDSLLFTWEELISENNLNGDFSEVDAQEQDSPAFRCTNSEVTVQPSPYLSYRLPKDFVDLSTGEDAHKLIDFLKLKRNQQEDD [CDC123] 1

Which category fits this record: MFQASMRSPNMEPFKQQKVEDFYDIGEELGSGQFAIVKKCREKSTGLEYAAKFIKKRQSRASRRGVSREEIEREVSILRQVLHHNVITLHDVYENRTDVVLILELVSGGELFDFLAQKESLSEEEATSFIKQILDGVNYLHTKKIAHFDLKPENIMLLDKNIPIPHIKLIDFGLAHEIEDGVEFKNIFGTPEFVAPEIVNYEPLGLEADMWSIGVITYILLSGASPFLGDTKQETLANITAVSYDFDEEFFSQTSELAKDFIRKLLVKETRKRLTIQEALRHPWITPVDNQQAMVRRESVVNLENFRKQYVRRRWKLSFSIVSLCNHLTRSLMKKVHLRPDEDLRNCESDTEEDIARRKALHPRRRSSTS [DAPK2] 2

Which category fits this record: MMEDDGQPRTLYVGNLSRDVTEVLILQLFSQIGPCKSCKMITEHTSNDPYCFVEFYEHRDAAAALAAMNGRKILGKEVKVNWATTPSSQKKDTSNHFHVFVGDLSPEITTEDIKSAFAPFGKISDARVVKDMATGKSKGYGFVSFYNKLDAENAIVHMGGQWLGGRQIRTNWATRKPPAPKSTQENNTKQLRFEDVVNQSSPKNCTVYCGGIASGLTDQLMRQTFSPFGQIMEIRVFPEKGYSFVRFSTHESAAHAIVSVNGTTIEGHVVKCYWGKESPDMTKNFQQVDYSQWGQWSQVYGNPQQYGQYMANGWQVPPYGVYGQPWNQQGFGVDQSPSAAWMGGFGAQPPQGQAPPPVIPPPNQAGYGMASYQTQ [TIAL1] 2

Which category fits this record: MVGVKPVGSDPDFQPELSGAGSRLAVVKFTMRGCGPCLRIAPAFSSMSNKYPQAVFLEVDVHQCQGTAATNNISATPTFLFFRNKVRIDQYQGADAVGLEEKIKQHLENDPGSNEDTDIPKGYMDLMPFINKAGCECLNESDEHGFDNCLRKDTTFLESDCDEQLLITVAFNQPVKLYSMKFQGPDNGQGPKYVKIFINLPRSMDFEEAERSEPTQALELTEDDIKEDGIVPLRYVKFQNVNSVTIFVQSNQGEEETTRISYFTFIGTPVQATNMNDFKRVVGKKGESH [TXNL1] 2

Which category fits this record: MQRRSRGINTGLILLLSQIFHVGINNIPPVTLATLALNIWFFLNPQKPLYSSCLSVEKCYQQKDWQRLLLSPLHHADDWHLYFNMASMLWKGINLERRLGSRWFAYVITAFSVLTGVVYLLLQFAVAEFMDEPDFKRSCAVGFSGVLFALKVLNNHYCPGGFVNILGFPVPNRFACWVELVAIHLFSPGTSFAGHLAGILVGLMYTQGPLKKIMEACAGGFSSSVGYPGRQYYFNSSGSSGYQDYYPHGRPDHYEEAPRNYDTYTAGLSEEEQLERALQASLWDRGNTRNSPPPYGFHLSPEEMRRQRLHRFDSQ [RHBDD1] 0

Which category fits this record: MDPARKAGAQAMIWTAGWLLLLLLRGGAQALECYSCVQKADDGCSPNKMKTVKCAPGVDVCTEAVGAVETIHGQFSLAVRGCGSGLPGKNDRGLDLHGLLAFIQLQQCAQDRCNAKLNLTSRALDPAGNESAYPPNGVECYSCVGLSREACQGTSPPVVSCYNASDHVYKGCFDGNVTLTAANVTVSLPVRGCVQDEFCTRDGVTGPGFTLSGSCCQGSRCNSDLRNKTYFSPRIPPLVRLPPPEPTTVASTTSVTTSTSAPVRPTSTTKPMPAPTSQTPRQGVEHEASRDEEPRLTGGAAGHQDRSNSGQYPAKGGPQQPHNKGCVAPTAGLAALLLAVAAGVLL [LYPD3] 0

Which category fits this record: MADQRQRSLSTSGESLYHVLGLDKNATSDDIKKSYRKLALKYHPDKNPDNPEAADKFKEINNAHAILTDATKRNIYDKYGSLGLYVAEQFGEENVNTYFVLSSWWAKALFVFCGLLTCCYCCCCLCCCFNCCCGKCKPKAPEGEETEFYVSPEDLEAQLQSDEREATDTPIVIQPASATETTQLTADSHPSYHTDGFN [DNAJC5] 1
